Data provenance: ChEMBL document CHEMBL2331450

target entity: Serine/threonine-protein kinase B-raf (Homo sapiens, UniProt P15056, V600E)
Sequence (P15056 2-766 V600E limits assumed): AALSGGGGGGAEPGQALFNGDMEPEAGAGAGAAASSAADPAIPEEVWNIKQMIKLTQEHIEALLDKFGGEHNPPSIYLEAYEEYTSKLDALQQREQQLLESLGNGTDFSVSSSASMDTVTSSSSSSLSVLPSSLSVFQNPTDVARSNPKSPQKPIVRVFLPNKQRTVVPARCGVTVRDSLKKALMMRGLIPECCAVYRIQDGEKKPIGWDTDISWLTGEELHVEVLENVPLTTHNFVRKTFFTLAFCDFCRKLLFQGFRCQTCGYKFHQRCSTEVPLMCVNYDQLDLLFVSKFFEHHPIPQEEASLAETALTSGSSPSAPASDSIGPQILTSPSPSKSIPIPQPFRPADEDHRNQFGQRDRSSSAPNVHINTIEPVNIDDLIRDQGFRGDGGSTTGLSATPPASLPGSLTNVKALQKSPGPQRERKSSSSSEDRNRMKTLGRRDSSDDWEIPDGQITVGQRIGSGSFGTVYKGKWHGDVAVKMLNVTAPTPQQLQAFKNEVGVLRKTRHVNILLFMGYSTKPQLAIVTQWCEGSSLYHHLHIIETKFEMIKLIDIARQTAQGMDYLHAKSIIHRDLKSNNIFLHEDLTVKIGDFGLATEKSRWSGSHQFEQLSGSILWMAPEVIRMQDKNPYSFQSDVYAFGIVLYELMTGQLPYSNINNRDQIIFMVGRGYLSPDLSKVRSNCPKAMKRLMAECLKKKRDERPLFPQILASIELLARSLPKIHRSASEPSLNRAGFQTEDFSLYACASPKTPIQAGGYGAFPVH
test details: Inhibition of human recombinant N-terminal His-tagged BRAF V600E mutant expressed in Sf9 cells using GST-tagged MEK1 and ATP as substrate incubated for 10 mins prior to ATP addition measured after 45 mins by DELFIA assay
pIC50: −log10 of the molar value.
Parameter: pIC50. Scope: all listed entries.
experimental endpoint: pIC50

1) CN(C)CCOc1ccc(-c2nc(-c3ccc4c([S+](C)[O-])csc4c3)c(-c3ccncc3)[nH]2)cc1 (configuration not stated): < 5.00
2) CN(C)CCOc1ccc(-c2nc(-c3ccc4c(O)cccc4c3)c(-c3ccncc3)[nH]2)cc1: 8.05
3) CN(C)CCOc1ccc(-c2nc(-c3ccc(C(O)C(F)(F)F)cc3)c(-c3ccncc3)[nH]2)cc1 (racemic): < 5.00
4) CN(C)CCOc1ccc(-c2nc(-c3ccc4c(C=O)csc4c3)c(-c3ccncc3)[nH]2)cc1: < 5.00
5) CN(C)CCOc1ccc(-c2nc(-c3ccc4c(CO)csc4c3)c(-c3ccncc3)[nH]2)cc1: < 5.00
6) CN(C)CCOc1ccc(-c2nc(-c3ccc4cc(O)ccc4c3)c(-c3ccncc3)[nH]2)cc1: 5.06
7) CN(C)CCOc1ccc(-c2nc(-c3ccc4c([C@@H](O)C(F)(F)F)csc4c3)c(-c3ccncc3)[nH]2)cc1: 6.72
8) CN(C)CCOc1ccc(-c2nc(-c3ccc(Cl)c(Cl)c3)c(-c3ccncc3)[nH]2)cc1: 6.24
9) CN(C)CCOc1ccc(-c2nc(-c3ccc4ccc(=O)[nH]c4c3)c(-c3ccncc3)[nH]2)cc1: < 4.00
10) CN(C)CCOc1ccc(-c2nc(-c3ccc4c(C(O)C(F)(F)C(F)(F)F)csc4c3)c(-c3ccncc3)[nH]2)cc1 (racemic): < 5.00
11) CN(C)CCOc1ccc(-c2nc(-c3ccc(F)c(Cl)c3)c(-c3ccncc3)[nH]2)cc1: < 5.00
12) CN(C)CCOc1ccc(-c2nc(-c3ccc4c(=O)[nH]ccc4c3)c(-c3ccncc3)[nH]2)cc1: < 5.00
13) CN(C)CCOc1ccc(-c2nc(-c3ccc4c(C(N)=O)coc4c3)c(-c3ccncc3)[nH]2)cc1: < 5.00
14) CN(C)CCOc1ccc(-c2nc(-c3ccc4c(O)c(F)ccc4c3)c(-c3ccncc3)[nH]2)cc1: 7.54
15) CN(C)CCOc1ccc(-c2nc(-c3ccc4c(CO)coc4c3)c(-c3ccncc3)[nH]2)cc1: < 5.00
16) CN(C)CCOc1ccc(-c2nc(-c3ccc4[nH]c(=O)ccc4c3)c(-c3ccncc3)[nH]2)cc1: < 4.00
17) CN(C)CCOc1ccc(-c2nc(-c3ccc4sc(C(O)C(F)(F)F)cc4c3)c(-c3ccncc3)[nH]2)cc1 (racemic): < 5.00

====

target entity: Serine/threonine-protein kinase B-raf (Homo sapiens, UniProt P15056, V600E)
test details: Inhibition of human recombinant N-terminal His-tagged BRAF V600E mutant expressed in Sf9 cells using GST-tagged MEK1 and ATP as substrate incubated for 10 mins prior to ATP addition measured after 45 mins by DELFIA assay
pIC50: −log10 of the molar value.
Parameter: pIC50. Scope: all listed entries.
experimental endpoint: pIC50

1. CN(C)CCOc1ccc(-c2nc(-c3ccc4c(O)c(Cl)ccc4c3)c(-c3ccncc3)[nH]2)cc1: 7.38
2. CSc1csc2cc(-c3nc(-c4ccc(OCCN(C)C)cc4)[nH]c3-c3ccncc3)ccc12: 4.85
3. CN(C)CCOc1ccc(-c2nc(-c3ccc4ccc(O)cc4c3)c(-c3ccncc3)[nH]2)cc1: 5.85
4. CN(C)CCOc1ccc(-c2nc(-c3ccc4c(N)nccc4c3)c(-c3ccncc3)[nH]2)cc1: 5.96
5. CN(C)CCOc1ccc(-c2nc(-c3ccc4c(C(O)C(F)(F)F)csc4c3)c(-c3ccncc3)[nH]2)cc1 (racemic): 6.48
6. CCCSc1csc2cc(-c3nc(-c4ccc(OCCN(C)C)cc4)[nH]c3-c3ccncc3)ccc12: 5.03

====

test details: Antiproliferative activity against human WM266.4 cells after 6 days by SRB assay
Type: functional
experimental setup: WM 266-4, 144 h
GI50 vs 6 µM: less than gives Met; not less than gives Not met.

1) CN(C)CCOc1ccc(-c2nc(-c3ccc4cc(O)ccc4c3)c(-c3ccncc3)[nH]2)cc1: Met
2) CN(C)CCOc1ccc(-c2nc(-c3ccc4c(O)c(Cl)ccc4c3)c(-c3ccncc3)[nH]2)cc1: Met
3) CN(C)CCOc1ccc(-c2nc(-c3ccc4c([C@@H](O)C(F)(F)F)csc4c3)c(-c3ccncc3)[nH]2)cc1: Met
4) CN(C)CCOc1ccc(-c2nc(-c3ccc4c(N)nccc4c3)c(-c3ccncc3)[nH]2)cc1: Met
5) CN(C)CCOc1ccc(-c2nc(-c3ccc4c(O)c(F)ccc4c3)c(-c3ccncc3)[nH]2)cc1: Not met
6) CCCSc1csc2cc(-c3nc(-c4ccc(OCCN(C)C)cc4)[nH]c3-c3ccncc3)ccc12: Met

====

test details: Antiproliferative activity against human WM266.4 cells after 6 days by SRB assay
Format: functional
experimental setup: WM 266-4, 144 h
experimental endpoint: GI50

1. CN(C)CCOc1ccc(-c2nc(-c3ccc4c(C(O)C(F)(F)F)csc4c3)c(-c3ccncc3)[nH]2)cc1 (racemic): 3100 nM
2. CN(C)CCOc1ccc(-c2nc(-c3ccc4ccc(O)cc4c3)c(-c3ccncc3)[nH]2)cc1: 3200 nM
3. CN(C)CCOc1ccc(-c2nc(-c3ccc4c(O)cccc4c3)c(-c3ccncc3)[nH]2)cc1: 220 nM
4. CN(C)CCOc1ccc(-c2nc(-c3ccc(Cl)c(Cl)c3)c(-c3ccncc3)[nH]2)cc1: 1600 nM

====

target entity: Serine/threonine-protein kinase B-raf (Homo sapiens, UniProt P15056, V600E)
test details: Inhibition of BRAF V600E mutant in human WM266.4 cells assessed as inhibition of ERK phosphorylation after 6 hrs by DELFIA assay
Type: cell-based
pIC50: −log10 of the molar value.
Parameter: pIC50. Scope: all listed entries.
experimental endpoint: pIC50

1. CN(C)CCOc1ccc(-c2nc(-c3ccc4c(O)c(F)ccc4c3)c(-c3ccncc3)[nH]2)cc1: 6.60
2. CCCSc1csc2cc(-c3nc(-c4ccc(OCCN(C)C)cc4)[nH]c3-c3ccncc3)ccc12: 4.51
3. CN(C)CCOc1ccc(-c2nc(-c3ccc4c(N)nccc4c3)c(-c3ccncc3)[nH]2)cc1: 5.29
4. CN(C)CCOc1ccc(-c2nc(-c3ccc4c(C(O)C(F)(F)F)csc4c3)c(-c3ccncc3)[nH]2)cc1 (racemic): 5.57
5. CN(C)CCOc1ccc(-c2nc(-c3ccc4c([C@@H](O)C(F)(F)F)csc4c3)c(-c3ccncc3)[nH]2)cc1: 5.64

====

target entity: Serine/threonine-protein kinase B-raf (Homo sapiens, UniProt P15056, V600E)
test details: Inhibition of BRAF V600E mutant in human WM266.4 cells assessed as inhibition of ERK phosphorylation after 6 hrs by DELFIA assay
Type: cell-based
Parameter: IC50. Scope: all listed entries.
experimental endpoint: IC50 (µM)

1. CN(C)CCOc1ccc(-c2nc(-c3ccc4c(O)cccc4c3)c(-c3ccncc3)[nH]2)cc1: 0.39
2. CN(C)CCOc1ccc(-c2nc(-c3ccc4cc(O)ccc4c3)c(-c3ccncc3)[nH]2)cc1: 14
3. CN(C)CCOc1ccc(-c2nc(-c3ccc(Cl)c(Cl)c3)c(-c3ccncc3)[nH]2)cc1: 5.9
4. CN(C)CCOc1ccc(-c2nc(-c3ccc4ccc(O)cc4c3)c(-c3ccncc3)[nH]2)cc1: 3.6
5. CN(C)CCOc1ccc(-c2nc(-c3ccc4c(O)c(Cl)ccc4c3)c(-c3ccncc3)[nH]2)cc1: 1.25
